tested on: full length human vWF (SEQ ID NO 7); assay: dot blot KD determination and extent of binding, full length human vWF; details: Phase 3 modification; full length human vWF, dot blot, 8 point protein titration; read-out: KD;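 note: dot blot binding of aptamers to full length human vWF across a protein titration, incubated 30 minutes at room temperature in 1x DPBS with BSA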
Oligonucleotides are written 5' to 3', each unit as a sugar letter and its base; * is a phosphorothioate linkage, no mark a phosphodiester; rarer units and linkages stand in square brackets, end groups in braces. Plain capitals give the bases only. [invdT] = inverted (3'-3') thymidine; d = 2'-deoxy (DNA); m = 2'-O-methyl
The following substances are listed with their measured log10(Kd) values.
On a log10 scale: recorded Kd, unit nM.

Previously resolved entries follow.
ARC1361: ARC1346 with a mC to dC modification at position 36 (mGmCmGmUdGdCdAmGmUmGmCmCmUmUmCmGmGmCdCmGdTmGdCdGdGdTmGmCdCmUdCdCmGmUdCmAmCmGmC[invdT]) | 0.90
ARC1363: ARC1361 with single phosphorothioate phosphate backbone modification (mGmCmGmUdG*dCdAmGmUmGmCmCmUmUmCmGmGmCdCmGdTmGdCdGdGdTmGmCdCmUdCdCmGmUdCmAmCmGmC[invdT]; aptamer) | 1.10
ARC1376: ARC1361 with single phosphorothioate phosphate backbone modification (mGmCmGmUdGdCdAmGmUmGmCmCmUmUmCmGmGmCdCmGdTmGdCdGdGdTmGmCdC*mUdCdCmGmUdCmAmCmGmC[invdT]; aptamer) | 0.64
ARC1380: ARC1361 with single phosphorothioate phosphate backbone modification (mGmCmGmUdGdCdAmGmUmGmCmCmUmUmCmGmGmCdCmGdTmGdCdGdGdTmGmCdCmUdCdCmGmU*dCmAmCmGmC[invdT]) | 1.08
ARC1364: ARC1361 with single phosphorothioate phosphate backbone modification (mGmCmGmUdGdC*dAmGmUmGmCmCmUmUmCmGmGmCdCmGdTmGdCdGdGdTmGmCdCmUdCdCmGmUdCmAmCmGmC[invdT]; aptamer) | 0.91
ARC1373: ARC1361 with single phosphorothioate phosphate backbone modification (mGmCmGmUdGdCdAmGmUmGmCmCmUmUmCmGmGmCdCmGdTmGdCdGdG*dTmGmCdCmUdCdCmGmUdCmAmCmGmC[invdT]; aptamer) | 0.85
ARC1370: ARC1361 with single phosphorothioate phosphate backbone modification (mGmCmGmUdGdCdAmGmUmGmCmCmUmUmCmGmGmCdCmGdTmG*dCdGdGdTmGmCdCmUdCdCmGmUdCmAmCmGmC[invdT]; aptamer) | 1.00
ARC1374: ARC1361 with single phosphorothioate phosphate backbone modification (mGmCmGmUdGdCdAmGmUmGmCmCmUmUmCmGmGmCdCmGdTmGdCdGdGdT*mGmCdCmUdCdCmGmUdCmAmCmGmC[invdT]; aptamer) | 0.98
ARC1381: ARC1361 with single phosphorothioate phosphate backbone modification (mGmCmGmUdGdCdAmGmUmGmCmCmUmUmCmGmGmCdCmGdTmGdCdGdGdTmGmCdCmUdCdCmGmUdC*mAmCmGmC[invdT]) | 0.94
mGmCmGmUdGdCdAmGmUmGmCmCmUmUmCmGmGmCdCmG-s-TmGdCdGdGTmGmCdCmUdCdCmGmUdCmAmCmGmC-3T (GCGUGCAGUGCCUUCGGCCGTGCGGTGCCUCCGUCACGC; sugars from the 5' end mmmmdddmmmmmmmmmmmdmdmddddmmdmddmmdmmmm, [invdT] at 3' end, backbone not given here) [ARC1368] | 0.26

Looking up ARC1378: ARC1361 with single phosphorothioate phosphate backbone modification (mGmCmGmUdGdCdAmGmUmGmCmCmUmUmCmGmGmCdCmGdTmGdCdGdGdTmGmCdCmUdC*dCmGmUdCmAmCmGmC[invdT]; aptamer) , I found its log10(Kd) recorded as 0.96
